system: Vero E6 cells; settings: uninfected Vero E6 cells, 0.5 µM
metric: Cell Viability (%)
Could you give me the number in %? Just the number is fine.

Examples with their reported Cell Viability (%) follow.
Specify Cell Viability (%) for Ac-S*YGFQPTNGV*-Ava-LWRALWRLWRSLWRLLWK-NH2 [Seq20] and stop. 91

Specify Cell Viability (%) for Ac-G*FQPTNGVK*-Ava-LWRALWRLWRSLWRLLWK-NH2 [Seq21] and stop. 78

Specify Cell Viability (%) for Ac-G*NYNYLYRLFK*-Ava-LWRALWRLWRSLWRLLWK-NH2 [Seq15] and stop. 95

More entries:
Specify Cell Viability (%) for Ac-T*NGVGYQPYK*-Ava-LWRALWRLWRSLWRLLWK-NH2 [Seq22] and stop. 87

Specify Cell Viability (%) for Ac-N*GVEGFNK*Ava-LWRALWRLWRSLWRLLWK-NH2 [Seq17] and stop. 85
